The values you see were collected from paper PMC4587093.

- System: CYP1C2 (Danio rerio)
- Sequence (A0AC58HLV5 1-514): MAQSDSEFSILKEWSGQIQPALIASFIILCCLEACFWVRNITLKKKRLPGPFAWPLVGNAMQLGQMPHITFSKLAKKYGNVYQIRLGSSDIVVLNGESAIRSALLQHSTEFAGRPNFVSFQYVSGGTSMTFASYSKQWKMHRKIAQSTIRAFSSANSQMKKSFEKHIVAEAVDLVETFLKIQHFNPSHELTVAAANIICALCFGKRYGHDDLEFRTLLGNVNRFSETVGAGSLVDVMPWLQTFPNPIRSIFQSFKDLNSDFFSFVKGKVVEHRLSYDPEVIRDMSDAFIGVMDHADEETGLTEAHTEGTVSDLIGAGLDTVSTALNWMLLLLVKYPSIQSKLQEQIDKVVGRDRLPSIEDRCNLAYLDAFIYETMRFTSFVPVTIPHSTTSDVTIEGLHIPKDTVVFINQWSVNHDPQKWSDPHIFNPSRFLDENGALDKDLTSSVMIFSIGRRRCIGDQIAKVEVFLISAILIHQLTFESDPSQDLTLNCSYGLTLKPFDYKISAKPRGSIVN
- Sequence (P16603 2-691 partner): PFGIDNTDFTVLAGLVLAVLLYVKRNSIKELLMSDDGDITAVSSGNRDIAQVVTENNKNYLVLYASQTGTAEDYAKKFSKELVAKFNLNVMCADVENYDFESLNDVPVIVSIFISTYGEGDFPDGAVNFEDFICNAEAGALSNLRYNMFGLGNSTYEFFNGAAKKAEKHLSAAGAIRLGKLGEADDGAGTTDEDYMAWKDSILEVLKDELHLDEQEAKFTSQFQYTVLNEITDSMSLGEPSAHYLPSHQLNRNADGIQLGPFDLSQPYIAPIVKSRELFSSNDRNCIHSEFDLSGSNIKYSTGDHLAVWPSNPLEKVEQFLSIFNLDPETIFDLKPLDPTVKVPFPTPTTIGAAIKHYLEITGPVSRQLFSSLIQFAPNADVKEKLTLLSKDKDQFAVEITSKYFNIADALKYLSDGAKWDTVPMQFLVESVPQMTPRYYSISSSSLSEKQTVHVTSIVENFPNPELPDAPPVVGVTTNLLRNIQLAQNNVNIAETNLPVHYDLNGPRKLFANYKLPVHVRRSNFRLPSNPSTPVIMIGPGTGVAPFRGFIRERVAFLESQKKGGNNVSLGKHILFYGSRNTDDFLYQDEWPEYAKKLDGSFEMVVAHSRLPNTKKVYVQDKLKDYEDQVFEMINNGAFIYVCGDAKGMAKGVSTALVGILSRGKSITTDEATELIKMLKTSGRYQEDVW

Compound | System | Ki, µM
c1ccc2c(c1)cc1ccc3cccc4ccc2c1c34 [BaP, benzo[a]pyrene] | CYP1C2 (Danio rerio) | 0.2

###

- System: CYP1D1 (Danio rerio, UniProt A0ACM8Q602)
- Sequence (A0ACM8Q602 1-512): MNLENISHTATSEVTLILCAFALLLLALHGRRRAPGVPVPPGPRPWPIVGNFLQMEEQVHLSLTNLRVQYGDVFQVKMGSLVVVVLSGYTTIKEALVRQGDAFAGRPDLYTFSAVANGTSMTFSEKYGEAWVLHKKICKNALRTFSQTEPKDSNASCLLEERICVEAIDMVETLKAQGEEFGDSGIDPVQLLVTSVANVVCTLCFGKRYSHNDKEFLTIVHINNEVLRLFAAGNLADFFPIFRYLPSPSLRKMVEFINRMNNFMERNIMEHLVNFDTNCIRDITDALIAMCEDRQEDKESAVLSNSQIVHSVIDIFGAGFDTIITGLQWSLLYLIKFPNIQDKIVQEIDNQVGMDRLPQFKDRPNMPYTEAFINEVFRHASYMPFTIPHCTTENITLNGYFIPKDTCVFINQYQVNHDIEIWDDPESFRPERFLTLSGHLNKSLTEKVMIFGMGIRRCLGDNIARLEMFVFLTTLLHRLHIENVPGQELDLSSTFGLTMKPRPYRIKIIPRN
pKi: −log10 of the molar value.

Compound | pKi
c1ccc2c(c1)cc1ccc3cccc4ccc2c1c34 [BaP, benzo[a]pyrene] | 4.92
